assay: Conversion rate (CR) assay with fluorescamine; format: physicochemical; details: Fig. S7 panel B; conversion rate, fluorescamine assay
Below: a set of entries, each annotated with reported CR / %.
ENDPOINT: CR / % (%)

>>> value_observed("RGDSGGGGGGKIKIQIC")
54.7
>>> value_observed("KIKQIINM")
43
>>> value_observed("EIEIQINM")
78.4
>>> value_observed("CKIKIQINM")
75.5
>>> value_observed("CRFRFQF")
98.1
>>> value_observed("CKIKQII")
55
>>> value_observed("RGEKIKIQINM")
80.3
>>> value_observed("CETMYDKILKNLSRSR")
98.9
>>> value_observed("RGDCKFKFQF")
85.5
>>> value_observed("CEIEIQINMWQ")
67
>>> value_observed("HHHHKIKIQINMYYYY")
98.4
>>> value_observed("CKFKFQFNM")
93.5
>>> value_observed("KFKFQFNMWQ")
96.2
>>> value_observed("RGDKIKIQIC")
80
>>> value_observed("CSISIQI")
79.3
>>> value_observed("QCKAKAQANMWQ")
89.3
>>> value_observed("HGEHGEHGE")
42.9
>>> value_observed("CKIKIQIRGD")
91
>>> value_observed("SISISRRI")
24.2
>>> value_observed("CRFRVPF")
97.1
>>> value_observed("KIKIQI")
18.9

---

Form field: Fibril (one value per entry).
assay type: physicochemical; parameters: key: 1 = fibrils present; 0 non-fibrillar structures; conditions: TEM; 1 = fibrils present, 0 = non-fibrillar structures
ENDPOINT: Fibril

>>> value_observed("MKIKIQINM")
1
>>> value_observed("KFKQFFINMWQ")
1
>>> value_observed("KIRGKFEKED")
0
>>> value_observed("CKFKQFF")
0
>>> value_observed("KIKIKIKIWW")
0
>>> value_observed("KVKVQVVV")
1
>>> value_observed("QCKIKQII")
1
>>> value_observed("KAKAKAQA")
0
>>> value_observed("KIKIQIRGD")
1
>>> value_observed("HGDKCHGDKC")
0
>>> value_observed("KFKFQF")
0
>>> value_observed("HGEHGE")
0
>>> value_observed("KIKIQINMWWQ")
0
>>> value_observed("NMWQKIKQII")
0
>>> value_observed("CKYKYQY")
0
>>> value_observed("RPRGLLLGNLR")
0
>>> value_observed("KFKFQFFF")
1
>>> value_observed("KAKAQANM")
0
>>> value_observed("CEFEFQFNMWQ")
1
>>> value_observed("CKIKQIINMWQ")
1
>>> value_observed("KIKIQIMWNQ")
1

---

Catalogue of Zeta Pot. / mV values
assay: Zeta-potential measurement; assay type: physicochemical; details: mean, Std in separate column
ENDPOINT: Zeta Pot. / mV

>>> value_observed("CKIKIQINMWQ [MG1]")
"13.87 mV"
>>> value_observed("KFKFQFFF [TG12]")
"13.27 mV"
>>> value_observed("KVKVQVV [TG2]")
"-7.92 mV"
>>> value_observed("RGDKIKIQIC [MG7/CN1]")
"16.5 mV"
>>> value_observed("QCKFKQFFNMWQ [CK10]")
"9.587 mV"
>>> value_observed("CKFKQFF [CK15]")
"11.56 mV"
>>> value_observed("CEFEFQF [KB12]")
"-24.5 mV"
>>> value_observed("CEIEIQI [AR2/ TM142]")
"-26.1 mV"
>>> value_observed("QCKAKAQANMWQ [CK22]")
"-8.05 mV"
>>> value_observed("CKAKAQA [TM155]")
"-8.01 mV"
>>> value_observed("QCKIKQII [CK6]")
"11 mV"
>>> value_observed("CKFKFQF [BL4]")
"19.73 mV"
>>> value_observed("KIKQII [msis21]")
"-12.67 mV"
>>> value_observed("CKFKQFFNM [CK14]")
"15.2 mV"
>>> value_observed("CEIEIQINM [TM144]")
"-15.3 mV"
>>> value_observed("KFKFQFNM [BL6a]")
"13.9 mV"
>>> value_observed("KIKIQIN [JGB3]")
"3.34 mV"
>>> value_observed("CKIKIQINMW [TM86]")
"18.3 mV"
>>> value_observed("KAKAQANM [TM152]")
"-2.62 mV"
>>> value_observed("KIKIQINMWQRGD [VH17-II]")
"1.69 mV"
>>> value_observed("KFKFQFNMW [BL5 / KB13]")
"22.6 mV"
>>> value_observed("EIEIQINMWQ [VH8]")
"-19.13 mV"
>>> value_observed("CKFKFQFNM [BL3]")
"15.13 mV"
>>> value_observed("CKIKIQI [MG3b]")
"12.8 mV"
>>> value_observed("QCKFKFQFNMWQ [CK7]")
"21.07 mV"
>>> value_observed("QCKAKAQA [CK24]")
"0.674 mV"
>>> value_observed("MKIKIQINMWQ [TM52]")
"10.8 mV"
>>> value_observed("KIKIQINMWWWQ [VH12]")
"9.45 mV"
>>> value_observed("CKFKQFFNMWQ [CK13]")
"8.563 mV"
>>> value_observed("KIKIQINMWQ [JG1]")
"14.87 mV"
>>> value_observed("QCKFKQFFNM [CK11]")
"13.67 mV"
>>> value_observed("QCKIKQIINMWQ [reference compound]")
"6.643 mV"
>>> value_observed("KAKAQA [JJA2 / TM153]")
"-14.08 mV"
>>> value_observed("KIKQIINM [JGA2]")
"16.3 mV"
>>> value_observed("CEIEIQINMWQ [TM143]")
"-25.8 mV"
>>> value_observed("QCKIKIQINMWQ [EF-C opt]")
"11.73 mV"
>>> value_observed("CKAKAQANM [BL9]")
"-7.773 mV"
>>> value_observed("CKIKQIINMWQ [MG5a / CK17]")
"13.4 mV"
>>> value_observed("CKIKIQINM [MG2]")
"16.83 mV"
>>> value_observed("RGDCKIKIQINM [TM45]")
"11.3 mV"
>>> value_observed("QCKFKFQF [CK9]")
"12.2 mV"
>>> value_observed("QCKIKIQINM [CK2]")
"11.37 mV"
>>> value_observed("KIKIKIKI [TM13]")
"5.46 mV"
>>> value_observed("CKIKQIINM [BL1]")
"12.9 mV"
>>> value_observed("KAKAQANMWQ [JG3]")
"-19.63 mV"
>>> value_observed("KVKVQVVV [TG8]")
"0.147 mV"
>>> value_observed("KIKIQI [JJA4]")
"-5.63 mV"
>>> value_observed("KIKIQINM [JGB2]")
"8.51 mV"
>>> value_observed("RGDKIKIQINM [MG8a / CN17]")
"16.43 mV"
>>> value_observed("CKIKQII [MG4a]")
"-3.83 mV"
>>> value_observed("CKIKIQIII [AR0 / F19]")
"16.2 mV"
>>> value_observed("KIKIQIII [TG7]")
"19.8 mV"
>>> value_observed("CKFKFQFNMWQ [BL2]")
"17.03 mV"
>>> value_observed("QCKFKFQFNM [CK8]")
"15.7 mV"
>>> value_observed("RGDKIKIQI [MG14]")
"-0.899 mV"
>>> value_observed("KIKIQINMWWQ [VH11]")
"11.8 mV"
>>> value_observed("KFKFQF [JJA6]")
"-11.03 mV"
>>> value_observed("CKAKAQANMWQ [BL8]")
"0.7373 mV"
>>> value_observed("QCKFKQFF [CK12]")
"4.94 mV"
>>> value_observed("KIKIKIKIWWWW [TM12]")
"15.2 mV"
>>> value_observed("KIKQIINMWQ [JG2]")
"15.37 mV"
>>> value_observed("EIEIQINM [TM95 / (TM75)]")
"-23.33 mV"
>>> value_observed("QCKIKQIINM [CK5]")
"10.4 mV"
>>> value_observed("KIKQIIN [JGA3]")
"-11.7 mV"
>>> value_observed("KIKIQII [TG1 / (KM4)]")
"5.61 mV"
>>> value_observed("KIKIQIW [TM69]")
"12.5 mV"
>>> value_observed("KIKIQINMW [JGB1 /TM85]")
"19.7 mV"
>>> value_observed("KFKFQFW [TM71]")
"6.49 mV"
>>> value_observed("KIKIKIKIWW [TM21]")
"15.4 mV"
>>> value_observed("QCKIKIQI [CK3]")
"9.52 mV"
>>> value_observed("KFKFQFN [BL7]")
"12.7 mV"
>>> value_observed("RGDKIKIQINMWQ [MG9a]")
"6.59 mV"
